B1: TFE3 (parent)
chain: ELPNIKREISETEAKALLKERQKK

Variants of: B1
Assay: protein stability index of a GFP-peptide fusion (GPS, HEK-293T) (PSI 1-6); higher = more stable;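 also: lentivirally expressed fusions sorted by FACS into six bins by GFP to DsRed ratio, PSI derived from sequencing read proportions per bin multiplied by bin number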
Conditions: c terminus: a fixed tail appended
Outcome: rule met for protein stability index of at least 3; rule not met for anything lower.

[[record]]
variant = "E13H"
class_assignment = "rule met"

[[record]]
variant = "S10M"
class_assignment = "rule not met"

[[record]]
variant = "I5A"
class_assignment = "rule met"

[[record]]
variant = "E1T"
class_assignment = "rule met"

[[record]]
variant = "E1F"
class_assignment = "rule not met"

[[record]]
variant = "S10H"
class_assignment = "rule not met"

[[record]]
variant = "I5C"
class_assignment = "rule met"

[[record]]
variant = "K15T"
class_assignment = "rule not met"

[[record]]
variant = "K15V"
class_assignment = "rule not met"

[[record]]
variant = "N4K"
class_assignment = "rule not met"

[[record]]
variant = "K19H"
class_assignment = "rule not met"

[[record]]
variant = "I5F"
class_assignment = "rule met"

[[record]]
variant = "E8Y"
class_assignment = "rule met"

[[record]]
variant = "E20G"
class_assignment = "rule not met"

[[record]]
variant = "K6F"
class_assignment = "rule not met"

[[record]]
variant = "R21Y"
class_assignment = "rule not met"

[[record]]
variant = "P3A"
class_assignment = "rule not met"

[[record]]
variant = "L17W"
class_assignment = "rule not met"

[[record]]
variant = "K23D"
class_assignment = "rule not met"

[[record]]
variant = "N4E"
class_assignment = "rule met"

[[record]]
variant = "I5M"
class_assignment = "rule not met"

